Origin of values: ChEMBL document CHEMBL3396994

testedOn: Sodium-dependent serotonin transporter (Rattus norvegicus, UniProt P31652)
Sequence (P31652 whole entry): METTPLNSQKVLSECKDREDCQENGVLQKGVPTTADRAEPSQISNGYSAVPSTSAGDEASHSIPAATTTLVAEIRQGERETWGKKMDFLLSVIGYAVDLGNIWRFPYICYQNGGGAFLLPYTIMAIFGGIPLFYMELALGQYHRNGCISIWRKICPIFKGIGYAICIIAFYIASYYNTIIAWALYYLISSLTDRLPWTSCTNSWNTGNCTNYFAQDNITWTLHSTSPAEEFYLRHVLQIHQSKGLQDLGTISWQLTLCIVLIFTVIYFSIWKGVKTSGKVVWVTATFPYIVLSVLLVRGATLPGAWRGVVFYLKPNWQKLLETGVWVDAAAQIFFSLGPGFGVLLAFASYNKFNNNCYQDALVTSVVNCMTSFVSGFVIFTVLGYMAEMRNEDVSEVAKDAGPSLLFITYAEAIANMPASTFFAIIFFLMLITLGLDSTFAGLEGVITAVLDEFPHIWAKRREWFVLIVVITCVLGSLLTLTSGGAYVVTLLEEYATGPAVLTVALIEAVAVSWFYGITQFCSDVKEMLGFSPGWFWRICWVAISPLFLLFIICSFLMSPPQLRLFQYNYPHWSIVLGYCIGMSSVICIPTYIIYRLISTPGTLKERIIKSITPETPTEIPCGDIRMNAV
Field: label. Allowed values: t (Ki < 20 nM) or f (Ki >= 20 nM).

The examples below pair each entry with its known result.
**Query** Lab note: Ki threshold 20 nM. Does this compound come in strictly under it? COc1ccc(-c2c(=O)n(CCCCN3CC=C(c4c[nH]c5ccc(F)cc45)CC3)c(=O)n3ccccc23)cc1
**Result** t

**Query** Hi there! Is Ki for O=c1c(-c2ccccc2Cl)c2ccccn2c(=O)n1CCCCN1CC=C(c2c[nH]c3ccc(F)cc23)CC1 below 20 nM, do you know?
**Result** t

**Query** Decide: Ki of O=c1c(-c2ccccc2Cl)c2ccccn2c(=O)n1CCCCN1CCC(c2c[nH]c3ccc(F)cc23)CC1 strictly below 20 nM?
**Result** f

**Query** Does this compound meet the criterion Ki < 20 nM? Cc1ccc(-c2c(=O)n(CCCCN3CC=C(c4c[nH]c5ccc(Br)cc45)CC3)c(=O)n3ccccc23)cc1
**Result** f

**Query** Hi there! Is Ki for Cc1ccc(-c2c(=O)n(CCCCN3CC=C(c4c[nH]c5ccc(Cl)cc45)CC3)c(=O)n3ccccc23)cc1 below 20 nM, do you know?
**Result** f

Continuing:
**Query** Say whether its Ki is strictly beneath 20 nM. Entry: O=c1c(-c2ccc(F)cc2)c2ccccn2c(=O)n1CCCCN1CCC(c2c[nH]c3ccc(F)cc23)CC1
**Result** t

**Query** Would you kindly verify if Ki of O=c1c(-c2ccccc2F)c2ccccn2c(=O)n1CCCCN1CCC(c2c[nH]c3ccc(F)cc23)CC1 is strictly less than 20 nM?
**Result** f
